FYI, the data here is from the supplement of paper PMC8728848.

# ASSAYED SYSTEM: Kdn(a2-3)Gal(b1-3)GalNAc
# MEASUREMENT NOTES: glycan array binding signal (z-score within array); higher = stronger binding
# RECORDED CONDITIONS: glycan notation: IUPAC condensed, linker removed
The sample as a whole holds a higher share of the strongest signals than the screen did.
Each entry below carries its recorded glycan array binding signal (z-score).

{"columns": ["BINDER", "glycan array binding signal (z-score)"],
 "data": [
  ["BTL (Bryothamnion triquetrum) (protein) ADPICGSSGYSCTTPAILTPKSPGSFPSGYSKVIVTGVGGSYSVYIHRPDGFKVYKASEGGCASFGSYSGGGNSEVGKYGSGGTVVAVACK", -0.259],
  ["Gal 12 (Homo sapiens), Q96DT0 (protein) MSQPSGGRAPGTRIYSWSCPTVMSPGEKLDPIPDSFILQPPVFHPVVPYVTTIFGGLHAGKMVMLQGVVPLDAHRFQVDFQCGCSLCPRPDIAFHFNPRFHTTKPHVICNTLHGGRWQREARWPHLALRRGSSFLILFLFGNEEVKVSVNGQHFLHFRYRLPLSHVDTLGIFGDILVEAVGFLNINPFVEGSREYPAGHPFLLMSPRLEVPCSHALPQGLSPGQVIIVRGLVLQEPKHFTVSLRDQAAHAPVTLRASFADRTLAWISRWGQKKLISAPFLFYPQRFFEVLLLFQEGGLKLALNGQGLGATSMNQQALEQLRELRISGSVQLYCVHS", 0.39],
  ["GSL-I (Griffonia simplicifolia) (protein) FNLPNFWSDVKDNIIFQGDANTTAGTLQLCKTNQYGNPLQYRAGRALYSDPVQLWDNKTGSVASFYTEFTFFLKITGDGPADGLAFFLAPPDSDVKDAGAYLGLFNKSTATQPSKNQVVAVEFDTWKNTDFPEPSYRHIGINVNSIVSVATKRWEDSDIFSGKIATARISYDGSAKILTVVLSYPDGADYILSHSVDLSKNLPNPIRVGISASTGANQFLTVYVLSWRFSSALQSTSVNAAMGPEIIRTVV", -0.069]
]}
